System: 9GC (multinucleoside resistant recombinant virus D67E, S68T, T69S[SA insert], T215Y)
method: p24 reduction assay in MT-2 cells, virus 9GC
Type: cell-based, HIV-1
condition_details: Table 4; virus 9GC; mean ± SD
observable: pEC50
Expect pEC50 as a plain number equal to -log10 of the molar concentration.

[
  {
    "molecule": "CCCCCCCCCCCCCCCCCCOC[C@@H](O)COP(=O)(O)C(=O)O [B-PFA, 1-O-octadecyl-sn-glycero-3-PFA]",
    "pEC50": 5.39
  }
]

Lookup: # pEC50 lookup, item CCCCCCCCCCCCCCCCCCOC[C@H](COP(=O)(O)C(=O)O)OCC [EB-PFA, 1-O-octadecyl-2-O-ethyl-sn-glycero-3-PFA]
Found: 6.70
